Values from ChEMBL document CHEMBL1130155

Values of Ki reported for Prothrombin (Bos taurus) appear below.
parameter.measured: Ki (nM)

>>> value_measured("CC1(C)C2CCC1(CCS(=O)(=O)NC(Cc1cccc(C(=N)N)c1)C(=O)N1CCN(S(C)(=O)=O)CC1)C(=O)C2 (stereo in doubt; 30)")
31
>>> value_measured("N=C(N)c1cccc(C[C@H](NS(=O)(=O)c2ccc3ccccc3c2)C(=O)N2CCN(CCO)CC2)c1")
5600
>>> value_measured("N=C(N)c1cccc(C[C@@H](NS(=O)(=O)c2ccc3ccccc3c2)C(=O)N2CCN(CCO)CC2)c1")
37
>>> value_measured("CCOC(=O)N1CCN(C(=O)C(Cc2cccc(C(=N)N)c2)NS(=O)(=O)c2ccc3ccccc3c2)CC1 (centres undefined)")
670
